Numbers sourced from patent US20250361322A1.

- assayTarget: human Tissue Factor (TF) (human, UniProt P13726 33-295)
- protocolNotes: cell-based or functional assay
property: % GM-CSF at 6.4 nM antibody (%)
Kindly answer with a numeric value in %, unit omitted.

Here's what some known entries look like.
25G (antibody, human IgG1, V domains shown, Human IgG1; also called antibody designated 25G) VH: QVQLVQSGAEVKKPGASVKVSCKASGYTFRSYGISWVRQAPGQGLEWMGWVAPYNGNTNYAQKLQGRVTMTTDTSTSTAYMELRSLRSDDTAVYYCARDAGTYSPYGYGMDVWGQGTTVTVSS VL: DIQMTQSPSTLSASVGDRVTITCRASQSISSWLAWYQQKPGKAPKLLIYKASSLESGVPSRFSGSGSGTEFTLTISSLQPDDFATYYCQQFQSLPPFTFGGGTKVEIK :: 39
54E (antibody, human IgG1, V domains shown, Human IgG1; also called antibody designated 54E) VH: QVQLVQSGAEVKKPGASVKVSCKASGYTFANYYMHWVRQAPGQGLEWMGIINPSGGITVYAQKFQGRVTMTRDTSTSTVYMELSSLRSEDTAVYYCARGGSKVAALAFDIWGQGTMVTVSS VL: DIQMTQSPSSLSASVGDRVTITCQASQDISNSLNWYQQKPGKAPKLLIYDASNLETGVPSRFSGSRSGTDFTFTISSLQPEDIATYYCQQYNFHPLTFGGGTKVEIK :: 10
25G1 (antibody, human IgG1, V domains shown) VH: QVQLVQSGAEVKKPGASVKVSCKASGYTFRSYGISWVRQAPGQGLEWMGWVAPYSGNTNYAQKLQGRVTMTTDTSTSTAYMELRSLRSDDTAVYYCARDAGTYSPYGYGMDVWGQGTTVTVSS VL: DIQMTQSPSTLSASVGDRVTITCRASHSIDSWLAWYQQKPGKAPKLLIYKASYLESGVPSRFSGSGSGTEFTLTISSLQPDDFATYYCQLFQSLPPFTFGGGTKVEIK :: 18
39A (antibody, human IgG1, V domains shown, Human IgG1; also called antibody designated 39A) VH: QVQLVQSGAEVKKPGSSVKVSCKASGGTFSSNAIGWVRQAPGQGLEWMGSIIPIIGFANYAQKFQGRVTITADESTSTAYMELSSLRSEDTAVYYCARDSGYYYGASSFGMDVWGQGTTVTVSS VL: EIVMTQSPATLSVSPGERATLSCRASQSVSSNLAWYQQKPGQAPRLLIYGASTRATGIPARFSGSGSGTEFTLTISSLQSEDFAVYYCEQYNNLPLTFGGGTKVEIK :: 8

input: Give its % GM-CSF at 6.4 nM antibody value. Item: 25A5 (antibody, human IgG1, V domains shown) VH: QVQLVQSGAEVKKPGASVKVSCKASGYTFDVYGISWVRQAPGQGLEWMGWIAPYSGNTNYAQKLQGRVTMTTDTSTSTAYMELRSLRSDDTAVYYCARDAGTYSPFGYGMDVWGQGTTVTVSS VL: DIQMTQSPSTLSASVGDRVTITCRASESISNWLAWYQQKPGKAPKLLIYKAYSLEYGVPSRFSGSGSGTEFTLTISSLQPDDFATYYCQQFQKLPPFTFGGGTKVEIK
output: 18
